// data source = ChEMBL document CHEMBL3112521

tested on: OVCAR-8; assay: Cytotoxicity against human OVCAR8 cells assessed as growth inhibition at 5 ug/ml by MTT assay; type: functional; conditions: read-out: GI
measure_name: inhibition of growth at 5 µg/mL (%)
Please respond with the number in % and leave the unit unwritten.

Task: Please tell me: inhibition of growth at 5 µg/mL of Cc1ccc(O)c(/C=N/Nc2cnc3ccccc3n2)c1 , system OVCAR-8?
Result: 25.4

Task: Please tell me: inhibition of growth at 5 µg/mL of C(=N\Nc1cnc2ccccc2n1)/c1ccccc1 , system OVCAR-8?
Result: 34.5

Task: Please tell me: inhibition of growth at 5 µg/mL of COc1cccc(/C=N/Nc2cnc3ccccc3n2)c1OC , system OVCAR-8?
Result: 0

Task: Please tell me: inhibition of growth at 5 µg/mL of O=[N+]([O-])c1ccccc1/C=N/Nc1cnc2ccccc2n1 , system OVCAR-8?
Result: 21.8

Task: Please tell me: inhibition of growth at 5 µg/mL of Clc1ccc(/C=N/Nc2cnc3ccccc3n2)c(Cl)c1 , system OVCAR-8?
Result: 4.9

Task: Please tell me: inhibition of growth at 5 µg/mL of Cc1ccccc1/C=N/Nc1cnc2ccccc2n1 , system OVCAR-8?
Result: 17.8

Task: Please tell me: inhibition of growth at 5 µg/mL of COc1ccc(/C=N/Nc2cnc3ccccc3n2)c(O)c1 , system OVCAR-8?
Result: 80.9

Task: Please tell me: inhibition of growth at 5 µg/mL of Oc1cccc(/C=N/Nc2cnc3ccccc3n2)c1 , system OVCAR-8?
Result: 51.5

Task: Please tell me: inhibition of growth at 5 µg/mL of CCOc1cccc(/C=N/Nc2cnc3ccccc3n2)c1 , system OVCAR-8?
Result: 41.2

Task: Please tell me: inhibition of growth at 5 µg/mL of CCOc1ccc(/C=N/Nc2cnc3ccccc3n2)cc1 , system OVCAR-8?
Result: 50.3

Task: Please tell me: inhibition of growth at 5 µg/mL of Fc1ccccc1/C=N/Nc1cnc2ccccc2n1 , system OVCAR-8?
Result: 0

Task: Please tell me: inhibition of growth at 5 µg/mL of Oc1ccc(/C=N/Nc2cnc3ccccc3n2)cc1O , system OVCAR-8?
Result: 46.3

Task: Please tell me: inhibition of growth at 5 µg/mL of Clc1ccccc1/C=N/Nc1cnc2ccccc2n1 , system OVCAR-8?
Result: 9.09
